Consider the following compounds and their measured clearance readings.
Assay: Plasma clearance in beagle dog at 1 mg/kg, iv and 2 mg/kg, po
Type: ADME, organism-based, Canis lupus familiaris

smiles_code	scale_unit	clearance
COc1ccc2ncc(F)c(C[C@H](O)C34CCC(NCc5ccc6c(n5)NC(=O)CO6)(CC3)CO4)c2n1.Cl	mL/min/kg	9.16
COc1ccc2ncc(F)c(CCC34CCC(NCc5ccc6c(n5)NC(=O)CO6)(CC3)CO4)c2n1.Cl	mL/min/kg	39.8

* * *

Assay: Unbound fraction in dog plasma
Assay type: ADME, cell-free, Canis lupus familiaris
Consider the following molecules and their measured fraction unbound readings.

smiles_code	fraction unbound
COc1ccc2ncc(F)c(C[C@@H](O)C34CCC(NCc5ccc6c(n5)NC(=O)CO6)(CC3)CO4)c2n1.Cl	> 0.25
COc1ccc2ncc(F)c(CCC34CCC(NCc5ccc6c(n5)NC(=O)CO6)(CC3)CO4)c2n1.Cl	< 0.02
COc1ccc2ncc(F)c(C[C@H](O)C34CCC(NCc5ccc6c(n5)NC(=O)CO6)(CC3)CO4)c2n1.Cl	> 0.25
